# assayDetails: Cy5 fluorescence interference with SSB-bound oligo, artefact control for HCV NS3 helicase inhibitor project, biochemical, NIH Clinical Collection, E. coli SSB (AID 743268)
Active and inactive are the calls of the source. The rule behind the calls is not given here.
Outcome field: choose from label 1 (active), label 0 (inactive)

-- ask Outcome logged for CC[C@H]1OC(=O)[C@H](C)[C@@H](O[C@H]2C[C@@](C)(OC)[C@@H](O)[C@H](C)O2)[C@H](C)[C@@H](O[C@@H]2O[C@H](C)C[C@H](N(C)C)[C@H]2O)[C@](C)(O)C[C@@H](C)CN(C)[C@H](C)[C@@H](O)[C@]1(C)O in this assay:
-- reply label 0

-- ask Outcome logged for COc1cccc2c1C(=O)c1c(O)c3c(c(O)c1C2=O)C[C@@](O)(C(=O)CO)C[C@@H]3O[C@H]1C[C@H](N)[C@@H](O)[C@H](C)O1 in this assay:
-- reply label 1

-- ask Outcome logged for CN(CCO)CC(O)Cn1cnc2c1c(=O)n(C)c(=O)n2C (stereo unspecified) (tested in a mixture with another compound) in this assay:
-- reply label 0

-- ask Outcome logged for CCCCC(=O)OC1(C(=O)CO)CCC2C3CCC4=CC(=O)CCC4(C)C3C(O)CC21C (stereo unspecified) in this assay:
-- reply label 0

-- ask Outcome logged for CN1CCN(c2nc3cc(C(F)(F)F)ccc3n3cccc23)CC1 in this assay:
-- reply label 0

-- ask Outcome logged for C=CCc1ccc(O)c(-c2ccc(O)c(CC=C)c2)c1 in this assay:
-- reply label 0

-- ask Outcome logged for Cc1onc(-c2ccccc2)c1C(=O)NC1C(=O)N2C1SC(C)(C)C2C(=O)O (stereo unspecified) in this assay:
-- reply label 0

-- ask Outcome logged for C/C(=C\C(=O)OCCCCCCCCC(=O)O)C[C@@H]1OC[C@H](C[C@@H]2O[C@H]2[C@@H](C)[C@H](C)O)[C@@H](O)[C@H]1O in this assay:
-- reply label 0

-- ask Outcome logged for C=CC1=C(C(=O)O)N2C(=O)[C@@H](NC(=O)C(=NOCC(=O)O)c3csc(N)n3)[C@H]2SC1 in this assay:
-- reply label 0

-- ask Outcome logged for CC[C@]1(O)CC2CN(CCc3c([nH]c4ccccc34)[C@@](C(=O)OC)(c3cc4c(cc3OC)N(C=O)[C@H]3[C@@](O)(C(=O)OC)[C@H](OC(C)=O)[C@]5(CC)C=CCN6CC[C@]43[C@@H]65)C2)C1 (stereo partly specified) in this assay:
-- reply label 0

-- ask Outcome logged for O=C1c2c(O)cc(O)cc2O[C@H](c2ccc(O)c(O)c2)[C@@H]1O in this assay:
-- reply label 0

-- ask Outcome logged for O=c1c(O[C@@H]2O[C@H](CO)[C@H](O)[C@H](O)[C@H]2O)c(-c2ccc(O)c(O)c2)oc2cc(O)cc(O)c12 in this assay:
-- reply label 0

-- ask Outcome logged for CN1[C@@H](CC(=O)c2ccccc2)CCC[C@H]1C[C@H](O)c1ccccc1 in this assay:
-- reply label 0

-- ask Outcome logged for CN(C)CC/C=C1/c2ccccc2COc2ccccc21 in this assay:
-- reply label 0

-- ask Outcome logged for CC12CCC(=O)C=C1CCC1C2CCC2(C)C1CCC2(O)C(=O)CO (stereo unspecified) in this assay:
-- reply label 0

-- ask Outcome logged for COC(=O)C[C@](O)(CCCC(C)(C)O)C(=O)O[C@@H]1C(OC)=C[C@]23CCCN2CCc2cc4c(cc2[C@H]13)OCO4 in this assay:
-- reply label 0

-- ask Outcome logged for CN1CCN2c3ncccc3Cc3ccccc3[C@@H]2C1 in this assay:
-- reply label 0

-- ask Outcome logged for CC(=O)OCC(=O)C12OC3(CCCC3)OC1CC1C3CCC4=CC(=O)C=CC4(C)C3(F)C(O)CC12C (stereo unspecified) in this assay:
-- reply label 0

-- ask Outcome logged for CC1CC2C3CCC4=CC(=O)C=CC4(C)C3(F)C(O)CC2(C)C1(O)C(=O)CO (stereo unspecified) in this assay:
-- reply label 1

-- ask Outcome logged for CC(C(O)c1ccc(O)cc1)N1CCC(Cc2ccccc2)CC1 (stereo unspecified) in this assay:
-- reply label 0

-- ask Outcome logged for O=C1CN(N=Cc2ccc([N+](=O)[O-])o2)C(=O)N1 in this assay:
-- reply label 0

-- ask Outcome logged for CC(=O)NCCCCCCNC(C)=O in this assay:
-- reply label 0

-- ask Outcome logged for CCN(CC)CC#CCOC(=O)C(O)(c1ccccc1)C1CCCCC1 (stereo unspecified) in this assay:
-- reply label 0

-- ask Outcome logged for CO[C@H]1C=CO[C@@]2(C)Oc3c(C)c(O)c4c(O)c(c5c(nc6cc(C)ccn65)c4c3C2=O)NC(=O)C(C)=CC=C[C@H](C)[C@H](O)[C@@H](C)[C@@H](O)[C@@H](C)[C@H](OC(C)=O)[C@@H]1C in this assay:
-- reply label 0

-- ask Outcome logged for O=C1CN2Cc3c(ccc(Cl)c3Cl)N=C2N1 in this assay:
-- reply label 0

-- ask Outcome logged for O=C(O)C[C@H](O)C[C@H](O)/C=C/c1c(C2CC2)nc2ccccc2c1-c1ccc(F)cc1 in this assay:
-- reply label 0

-- ask Outcome logged for Nc1nc2ccc(Cl)cc2c2nc(-c3ccco3)nn12 in this assay:
-- reply label 0

-- ask Outcome logged for CC(N)(Cc1ccc(O)c(O)c1)C(=O)O (stereo unspecified) in this assay:
-- reply label 1

-- ask Outcome logged for CC(=O)NC[C@H]1CN(c2ccc(N3CCOCC3)c(F)c2)C(=O)O1 in this assay:
-- reply label 0

-- ask Outcome logged for CCOC(=O)c1ccc(OC(=O)CCCCCN=C(N)N)cc1 in this assay:
-- reply label 0

-- ask Outcome logged for Nc1nc(Cl)nc2c1ncn2[C@@H]1O[C@H](CO)[C@@H](O)[C@H]1O in this assay:
-- reply label 0

-- ask Outcome logged for OC[C@H]1O[C@@H](n2cnc3c(N[C@H]4CCC[C@@H]4O)ncnc32)[C@@H](O)C1O (stereo partly specified) in this assay:
-- reply label 0

-- ask Outcome logged for CCN(CC)C(=O)[C@]1(c2ccccc2)C[C@@H]1CN in this assay:
-- reply label 0

-- ask Outcome logged for CC(=O)N1CCN(c2ccc(OC[C@H]3CO[C@](Cn4ccnc4)(c4ccc(Cl)cc4Cl)O3)cc2)CC1 in this assay:
-- reply label 0

-- ask Outcome logged for CN(C)[C@@H]1C(=O)C(C(=O)NCN2CCCC2)=C(O)[C@@]2(O)C(=O)C3=C(O)c4c(O)cccc4[C@@](C)(O)C3CC12 (stereo partly specified) in this assay:
-- reply label 1

-- ask Outcome logged for CCCCC[C@H](O)/C=C/[C@H]1[C@H](O)CC(=O)[C@@H]1CCCCCCC(=O)O in this assay:
-- reply label 0
